- System: human adeno virus-2 (clinical isolate C251085)
- Assay Name: Inhibition of virus-induced cytopathicity, human adeno virus-2, in HEL 299 cells
- Type: cell-based
- Measurement Context: Human mastadenovirus C, 240 h, 10 days, cytopathicity reduced by 50%, read-out: Antiviral activity EC50 Adenovirus 2
Measurement Label: pEC50
Give bare numbers, as −log10 of the molar value.

Record pEC50 for all entries; do not skip any.
1. CCCCCOC(=O)[C@@H](NP(=O)(CO[C@H](CO)Cn1cnc2c(N)ncnc21)N[C@H](C(=O)OCCCCC)C(C)C)C(C)C [Example 19]
2. CCCCCOC(=O)[C@H](CC(C)C)NP1(=O)CO[C@@H](Cn2cnc3c(N)ncnc32)CO1 (stereo partly shown) [Example 17]
3. Nc1ccn(C[C@@H](CO)OCP(=O)(O)O)c(=O)n1 [Cidofovir, reference compound]
4. CCCCCOC(=O)C[C@H](NP1(=O)CO[C@@H](Cn2cnc3c(N)ncnc32)CO1)C(=O)OCCCCC (stereo partly shown) [Example 8]

1: 7.87; 2: 7.36; 3: 5.00; 4: 6.74
